These entries and their values trace back to patent US20240294478A1.

System: LN229 MGMT−/MMR− cells
assay name: Short-term cell viability assay, LN229 MGMT-/MMR- (shRNA targeting MSH2)
Format: cell-based, human
settings: LN229 MGMT−/MMR−
parameter measured: activity in MGMT−/MMR− cells, in words

[
  {
    "compound": "CC(=O)N(CCF)/N=N/c1[nH]cnc1C(N)=O",
    "reported result": "exquisite sensitivity"
  },
  {
    "compound": "NC(=O)c1[nH]cnc1/N=N/NCCF [Compound E1]",
    "reported result": "exquisite sensitivity"
  },
  {
    "compound": "NC(=O)c1ncn2c(=O)n(CCF)nnc12",
    "reported result": "exquisite sensitivity"
  }
]

====

System: four isogenic LN229 glioblastoma cell lines
assay name: Short-term cell viability assays, statements across the isogenic lines
Format: cell-based, human
settings: regardless of MMR status

[
  {
    "compound": "CC(=O)N(CCF)/N=N/c1[nH]cnc1C(N)=O",
    "activity in MGMT+ cells, in words": "limited activity"
  },
  {
    "compound": "NC(=O)c1[nH]cnc1/N=N/NCCF [Compound E1]",
    "activity in MGMT+ cells, in words": "limited activity"
  },
  {
    "compound": "NC(=O)c1ncn2c(=O)n(CCF)nnc12",
    "activity in MGMT+ cells, in words": "limited activity"
  }
]

====

System: LN229 MGMT−/MMR− cells
assay name: Short-term cell viability assay, LN229 MGMT-/MMR- (shRNA targeting MSH2)
Assay type: cell-based, human
settings: Homo sapiens, LN-229, 144 h, read-out: IC50 against LN229 cell lines, MGMT− MMR−
pIC50: −log10 of the molar value.
parameter measured: pIC50

Fill in pIC50 for CN(CCF)/N=N/c1nc[nH]c1C(N)=O tested with LN229 MGMT−/MMR− cells.
< 4.00

====

This section presents compounds with their documented pIC50 values.
Test system: LN229 MGMT− shMSH3 cells
assay name: Short-term viability assay, LN229 MGMT- shMSH3
Format: cell-based, human
settings: Homo sapiens, LN-229, Table III, read-out: IC50 against LN229 cell lines, MGMT− MMR−
// returns pIC50 (minus log10 of molar concentration), number only

[
  {
    "compound": "Cn1nnc2c(C(N)=O)ncn2c1=O [TMZ, reference compound]",
    "pIC50": 5.51
  }
]

Next item in the queue.
For the compound NC(=O)c1ncn2c(=O)n(CCF)nnc12 , report pIC50.
5.10

====

A collection of molecules and their measured pIC50
System: LN229 MGMT+ shMLH1 cells
assay name: Short-term viability assay, LN229 MGMT+ shMLH1
Type: cell-based
settings: Homo sapiens, LN-229, Table III, read-out: IC50 against LN229 cell lines, MGMT MMR−
Protocol: The activity of KL-50 in MGMT-LN229 cells engineered to lack expression of other key MMR proteins including MSH6, MLH1, PMS2, and MSH3 was also confirmed. […] Short-term Cell Viability Assay. […] Cells were imaged on a Cytation 3 imaging reader (BioTek) and quantified using CellProfiler software. For in vitro short-term growth delay experiments, IC50 values were determined from the nonlinear regression equation, [inhibitor] vs normalized response with variable slope.
API: returns pIC50 as number; meaning -log10 of concentration in mol/L.

Specify reported pIC50 for the molecule shown: NC(=O)c1ncn2c(=O)n(CCF)nnc12 [KL-50]
3.60

Identify pIC50 associated with the molecule Cn1nnc2c(C(N)=O)ncn2c1=O [TMZ, reference compound]
3.11
